Hi there, I'd appreciate the recorded Ki for every entry that follows.
Target: cathepsin B (Homo sapiens, UniProt P07858)
Construct: purchased Sigma
Assay: Cathepsin B inhibition (KI)
Type: biochemical
Details: Table 1, Z-Leu--AA--CONHR; read-out: KI Cat B
Numbers only; they are read as nM.

Suppose we examine the compound CCC(NC(=O)C(CC(C)C)NC(=O)OCc1ccccc1)C(=O)C(=O)NCCCN1CCOCC1 (stereo not drawn) ; what Ki value has been reported? 6900

For the compound shown here, CCC(NC(=O)C(CC(C)C)NC(=O)OCc1ccccc1)C(=O)C(=O)NCCCN1CCCC1=O (stereo not drawn) , give the reported Ki. 2000

Any idea what Ki was measured for CCC(NC(=O)C(CC(C)C)NC(=O)OCc1ccccc1)C(=O)C(=O)NCc1ccccn1 (stereo not drawn) ? 3000

Look at this compound and give its reported Ki. CCC(NC(=O)C(CC(C)C)NC(=O)OCc1ccccc1)C(=O)C(=O)NCCCn1ccnc1 (stereo not drawn) 9900

Any idea what its Ki is? The compound is CCC(NC(=O)C(CC(C)C)NC(=O)OCc1ccccc1)C(=O)C(=O)NCc1cccnc1 (stereo not drawn) 1200

What Ki value was documented for this compound, CCC(NC(=O)[C@H](CC(C)C)NC(=O)OCc1ccccc1)C(=O)C(=O)NCCN1CCOCC1 (stereo partly drawn) ? 2500

What value of measured Ki is listed for CC(C)CC(NC(=O)OCc1ccccc1)C(=O)NC(Cc1ccccc1)C(=O)C(=O)NCc1ccc2ccccc2n1 (stereo not drawn) ? 340

Which measured Ki value corresponds to CCC(NC(=O)C(CC(C)C)NC(=O)OCc1ccccc1)C(=O)C(=O)NCC1(C)CC(O)CC(C)(C)C1 (stereo not drawn) ? 890

Recorded Ki for CCC(NC(=O)C(CC(C)C)NC(=O)OCc1ccccc1)C(=O)C(=O)NCc1nccc2ccccc12 (stereo not drawn) , please? 300

Query: Ki; subject: CCC(NC(=O)C(CC(C)C)NC(=O)OCc1ccccc1)C(=O)C(=O)NCC1CCCO1 (stereo not drawn) [Z-Leu-Abu-CONH-CH2 -2-tetrahydrofuryl, Z-Leu-Abu-CONH--CH2 -2-Tetrahydrofuryl] 4500

What does the data say about its Ki? Entry: CCC(NC(=O)C(CC(C)C)NC(=O)OCc1ccccc1)C(=O)C(=O)NCCO (stereo not drawn) 4500

Give its Ki value. Item: CC[C@H](NC(=O)[C@H](CC(C)C)NC(=O)OCc1ccccc1)C(=O)C(=O)NCCCCCO 280

###

Target: Calpain I from human erythrocytes (Homo sapiens, UniProt P07384)
Construct: Calpain I was purified from human erythrocytes; from tissue; host or cells: human erythrocytes
Assay: Calpain I inhibition, Suc-Leu-Tyr-AMC hydrolysis (KI)
Type: biochemical
Details: Table 1, Z-Leu--AA--CONHR; read-out: KI Cal I
Procedure: HEPES, heparin, and A23187 were obtained from Calbiochem. Suc-Leu-Tyr-AMC and chromogenic substrates were obtained from Sigma. Calpain I was purified from human erythrocytes according to the method of Kitahara (Kitahara et al., J. Biochem. 95, 1759-1766) omitting the Blue-Sepharose step. Calpain II from rabbit muscle and cathepsin B were purchased from Sigma. Papain was purchased from Calbiochem. Peptide α-ketoamides were assayed as reversible enzyme inhibitors. […]
property.name: pKi
pKi is defined as minus the log10 of a concentration measured in mol/L.

pKi for CCC(NC(=O)C(CC(C)C)NC(=O)OCc1ccccc1)C(=O)C(=O)NCc1ccc[n+]([O-])c1 (stereo not drawn) [Z-Leu-Abu-CONH-CH2 -3-pyridyl-N-oxide, Z-Leu-Abu-CONH--CH2 -3-Pyridyl-N-oxide] ? 5.02

# lookup: pKi of CC(C)CC(NC(=O)OCc1ccccc1)C(=O)NC(Cc1ccccc1)C(=O)C(=O)NCCCN1CCc2ccccc2C1 (centres unmarked) 6.66

Which measured pKi value corresponds to CCC(NC(=O)C(CC(C)C)NC(=O)OCc1ccccc1)C(=O)C(=O)NCCc1ccc(OC)cc1 (centres unmarked) ? 6.92

Field request: pKi | item: CC(C)CC(NC(=O)OCc1ccccc1)C(=O)NC(Cc1ccccc1)C(=O)C(=O)NCCNC(=O)CCCCC1SCC2NC(=O)NC21 (centres unmarked) 6.66

Any idea what pKi was measured for CCC(NC(=O)C(CC(C)C)NC(=O)OCc1ccccc1)C(=O)C(=O)NCCNC(=O)CCCCC1SCC2NC(=O)NC21 (centres unmarked) ? 6.19

Suppose we examine the molecule CCC(NC(=O)C(CC(C)C)NC(=O)OCc1ccccc1)C(=O)C(=O)NCCO (centres unmarked) ; what pKi value has been reported? 6.10

Which pKi value belongs to CCCC(NC(=O)C(CC(C)C)NC(=O)OCc1ccccc1)C(=O)C(=O)NCc1ccccn1 (centres unmarked) ? 7.72

Bench note: what pKi did CCC(NC(=O)C(CC(C)C)NC(=O)OCc1ccccc1)C(=O)C(=O)NCc1nc2c(c(=O)n(C)c(=O)n2C)n1C (centres unmarked) show? 4.49

###

I'd be grateful if you could share measured pKi for these entries.
Molecular target: calpain II from rabbit
Assay: Calpain II inhibition, Suc-Leu-Tyr-AMC hydrolysis (KI)
Assay type: biochemical
Conditions: Table 3, M1 CO-Leu--AA--CONH-R; read-out: KI Cal II
Recall that pKi is obtained by taking minus log10 of the concentration measured in molar.

Given the compound CC(C)CC(NC(=O)C(c1ccccc1)c1ccccc1)C(=O)NC(Cc1ccccc1)C(=O)C(=O)NCCCN1CCOCC1 (centres unmarked) , what is its reported pKi? 7.13

Quick check: pKi of CC(C)CC(NC(=O)C(c1ccccc1)c1ccccc1)C(=O)NC(Cc1ccccc1)C(=O)C(=O)NCC(O)c1ccccc1 (stereo not drawn) [Ph2 CH-CO-Leu-Phe-CONH-CH2 CH(OH)Ph, Ph2 CHCO-Leu-Phe-CONH--CH2 CH(OH)Ph] ? 6.14

Need pKi of CCC(NC(=O)C(CC(C)C)NC(=O)C(c1ccccc1)c1ccccc1)C(=O)C(=O)NCCCN1CCOCC1 (centres unmarked) , thanks. 6.96

Recorded pKi of CC(C)CC(NC(=O)C(c1ccccc1)c1ccccc1)C(=O)NC(Cc1ccccc1)C(=O)C(=O)NCc1ccccn1 (stereo not drawn) [Ph2 CH-CO-Leu-Phe-CONH-CH2 -2-pyridyl, Ph2 CHCO-Leu-Phe-CONH--CH2 -2-Pyridyl] , please. 6.44

Sample CCC(NC(=O)C(CC(C)C)NC(=O)C(c1ccccc1)c1ccccc1)C(=O)C(=O)NCc1ccccn1 (stereo not drawn) [Ph2 CH-CO-Leu-Abu-CONH-CH2 -2-pyridyl, Ph2 CHCO-Leu-Abu-CONH-2-CH2 -Pyridyl] — what was its pKi? 7.05

###

Would you mind telling me the reported pKi of each entry?
Molecular target: Calpain I from human erythrocytes (Homo sapiens, UniProt P07384)
Construct: Calpain I was purified from human erythrocytes; from tissue; host or cells: human erythrocytes
Sequence (P07384 1-714): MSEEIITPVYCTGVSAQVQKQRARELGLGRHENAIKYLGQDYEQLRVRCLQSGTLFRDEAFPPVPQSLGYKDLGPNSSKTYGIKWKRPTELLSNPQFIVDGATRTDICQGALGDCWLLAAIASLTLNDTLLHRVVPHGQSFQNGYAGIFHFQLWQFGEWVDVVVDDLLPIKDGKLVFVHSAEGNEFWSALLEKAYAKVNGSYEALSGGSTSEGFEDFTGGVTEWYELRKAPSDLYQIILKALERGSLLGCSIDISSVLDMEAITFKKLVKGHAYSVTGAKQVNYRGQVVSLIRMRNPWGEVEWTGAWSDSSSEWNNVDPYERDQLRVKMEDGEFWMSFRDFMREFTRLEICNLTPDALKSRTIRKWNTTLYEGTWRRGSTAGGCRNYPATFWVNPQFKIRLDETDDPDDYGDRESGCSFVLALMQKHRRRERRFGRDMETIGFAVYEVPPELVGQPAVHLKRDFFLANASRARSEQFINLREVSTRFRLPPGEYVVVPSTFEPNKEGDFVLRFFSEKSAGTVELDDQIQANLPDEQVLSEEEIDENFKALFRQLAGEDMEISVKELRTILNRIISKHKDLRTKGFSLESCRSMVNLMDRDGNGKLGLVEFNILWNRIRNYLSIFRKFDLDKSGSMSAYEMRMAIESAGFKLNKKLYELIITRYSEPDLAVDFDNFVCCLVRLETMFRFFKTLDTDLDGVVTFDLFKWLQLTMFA
Sequence (P04632 1-268 partner): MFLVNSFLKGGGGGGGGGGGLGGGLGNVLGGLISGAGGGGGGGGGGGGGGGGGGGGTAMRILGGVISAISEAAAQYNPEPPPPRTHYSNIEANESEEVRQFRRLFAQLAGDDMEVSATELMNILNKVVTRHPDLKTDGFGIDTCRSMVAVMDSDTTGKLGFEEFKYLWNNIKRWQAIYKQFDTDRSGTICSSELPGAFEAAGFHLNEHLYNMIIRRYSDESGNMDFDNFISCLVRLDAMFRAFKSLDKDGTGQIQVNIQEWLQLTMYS
Test: Calpain I inhibition, Suc-Leu-Tyr-AMC hydrolysis (KI)
Format: biochemical
Settings: Table 3, M1 CO-Leu--AA--CONH-R; read-out: KI Cal I
Please keep in mind that pKi is minus log10 of the molar concentration; only the number is needed.

Would you kindly share the measured pKi for CCNC(=O)C(=O)C(CC)NC(=O)C(CC(C)C)NC(=O)c1ccco1 (stereo not drawn) [2-furyl-CO-Leu-Abu-CONH-Et, 2-Furyl-CO-Leu-Abu-CONHEt] ? 6.07

Can you share its pKi? I mean this compound: CCC(NC(=O)C(CC(C)C)NC(=O)C(c1ccccc1)c1ccccc1)C(=O)C(=O)NCC(O)c1ccccc1 (stereo not drawn) [Ph2 CH-CO-Leu-Abu-CONH-CH2 CH(OH)Ph, Ph2 CHCO-Leu-Abu-CONH--CH2 CH(OH)Ph] 6.12

Given the compound CC(C)CC(NC(=O)C(c1ccccc1)c1ccccc1)C(=O)NC(Cc1ccccc1)C(=O)C(=O)NCCCN1CCOCC1 (stereo not drawn) , what is its reported pKi? 6.12
